molecular target: HCV NS3/4A protease complex, J4L6S strain (1b genotype) (Hepatitis C virus genotype 1b, UniProt O92972, C1454S/C1711G); construct: DNA encoding the recombinant HCV NS3/4A protease complex (amino acids 1027 to 1711) for these strains; His tag (inferred from Ni-NTA purification and pET21b vector); test: Recombinant HCV NS3/4A protease complex FRET peptide assay, J4L6S strain
Sequence (O92972 1027-1711 C1454S/C1711G, one chain of several): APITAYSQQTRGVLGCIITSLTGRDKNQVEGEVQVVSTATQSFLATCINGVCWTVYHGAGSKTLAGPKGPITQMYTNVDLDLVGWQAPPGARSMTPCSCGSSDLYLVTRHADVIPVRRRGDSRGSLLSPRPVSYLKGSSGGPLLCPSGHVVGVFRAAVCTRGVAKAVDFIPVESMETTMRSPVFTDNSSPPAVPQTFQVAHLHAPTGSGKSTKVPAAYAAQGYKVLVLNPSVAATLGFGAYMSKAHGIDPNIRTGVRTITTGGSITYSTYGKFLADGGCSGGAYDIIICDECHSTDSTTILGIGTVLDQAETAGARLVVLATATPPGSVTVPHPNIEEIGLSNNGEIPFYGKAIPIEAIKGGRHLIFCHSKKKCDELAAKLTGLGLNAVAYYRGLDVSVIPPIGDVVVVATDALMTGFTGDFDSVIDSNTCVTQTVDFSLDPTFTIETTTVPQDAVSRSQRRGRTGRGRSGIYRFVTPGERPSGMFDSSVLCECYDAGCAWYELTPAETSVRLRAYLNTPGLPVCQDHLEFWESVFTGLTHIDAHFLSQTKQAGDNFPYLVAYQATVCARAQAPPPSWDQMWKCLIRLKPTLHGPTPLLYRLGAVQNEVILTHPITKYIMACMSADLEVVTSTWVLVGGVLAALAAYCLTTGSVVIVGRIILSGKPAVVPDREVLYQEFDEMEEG
outcome measure: IC50 (nM)

>>> df
                                   molecule  data_value
0  CC(C)(C)OC(=O)N[C@H]1CCCCC/C=C\[C@@H]2C[C@@]2(C(=O)NS(C)(=O)=O)NC(=O)[C@@H]2C[C@@H](Oc3nccc4ccccc34)CN2C1=O [Compound 2]         1.9

----------
The reader will find reported EC50 values listed item by item below.
tested on: HCV replicon (HCV 1b-377-neo replicon cells, Huh7); experiment: HCV replicon cell-based FRET assay; conditions: Hepatitis C virus, Huh-7
outcome measure: EC50

compound	data value
CC(C)(C)NC(=O)N[C@H]1CCCCC/C=C\[C@@H]2C[C@@]2(C(=O)NS(=O)(=O)C2CC2)NC(=O)[C@@H]2C[C@@H](Oc3nccc4ccccc34)CN2C1=O	< 50 nM
COc1ccc2c(OC3CC4C(=O)NC5(C(=O)NS(=O)(=O)C6(C)CC6)CC5C=CCOCCCC(NC(=O)NC5CCCC5)C(=O)N4C3)nccc2c1 (stereo not drawn)	< 50 nM
COc1cccc2c(OC3CC4C(=O)NC5(C(=O)NS(=O)(=O)C6CC6)CC5C=CCCCCCC(NC(=O)OC(C)(C)C)C(=O)N4C3)nccc12 (stereo not drawn)	< 50 nM
CCC1(S(=O)(=O)NC(=O)C23CC2C=CCCCSCC(NC(=O)NC2CCCC2)C(=O)N2CC(Oc4nccc5cc(OC)ccc45)CC2C(=O)N3)CC1 (stereo not drawn)	< 50 nM
COc1ccc2c(OC3CC4C(=O)NC5(C(=O)NS(=O)(=O)C6CC6)CC5C=CCCCSC(C)(C)C(N)C(=O)N4C3)nccc2c1 (stereo not drawn)	5000 to 50000 nM
CC(C)(C)CC(C)(C)NC(=O)NC1CCCCCC=CC2CC2(C(=O)NS(=O)(=O)C2CC2)NC(=O)C2CC(Oc3nccc4ccccc34)CN2C1=O (stereo not drawn)	< 50 nM
COc1ccc2c(OC3C[C@H]4C(=O)N[C@]5(C(=O)NS(=O)(=O)C6CC6)C[C@H]5/C=C\CCCSC[C@H](NC(=O)OC(C)(C)C)C(=O)N4C3)nccc2c1 (stereo partly drawn) [Compound 18B]	< 50 nM
CCC1(S(=O)(=O)NC(=O)C23CC2C=CCCCOC(C)C(NC(=O)OC(C)(C)C)C(=O)N2CC(Oc4nccc5cc(OC)ccc45)CC2C(=O)N3)CC1 (stereo not drawn)	50 to 500 nM
COc1ccc2c(O[C@@H]3C[C@H]4C(=O)N[C@]5(C(=O)NS(=O)(=O)C6CC6)C[C@H]5/C=C\CCCCC[C@H](NC(=O)OC(C)(C)C)C(=O)N4C3)nccc2c1 [Compound 17B]	< 50 nM

----------
biological target: HCV NS3/4A protease complex, BMS strain (genotype 1a) (UniProt P27958, C1454S/C1711G, species not given/STRAIN_BMS); construct: b1001: DNA encoding the recombinant HCV NS3/4A protease complex (amino acids 1027 to 1711) ... a three-lysine solubilizing tail was added at the 3′-end of the NS4A coding region; fused on or other part: Three-lysine solubilising tail at the C-terminus of NS4A; A His tag is implied by the pET21b vector and Ni-NTA purification; test: Recombinant HCV NS3/4A protease complex FRET peptide assay, BMS strain; type: biochemical; conditions: NS3/4A BMS Strain; activity range classes
pIC50: −log10 of the molar value.
outcome measure: pIC50

molecule	outcome measure	data value
COc1ccc2c(O[C@@H]3C[C@H]4C(=O)N[C@]5(C(=O)O)C[C@H]5/C=C\CCCSC(C)(C)[C@H](NC(=O)OC(C)(C)C)C(=O)N4C3)nccc2c1 [Compound 79]	pIC50	4.30 to 5.30
CC(C)(C)OC(=O)N[C@H]1CN(S(=O)(=O)c2ccccc2[N+](=O)[O-])CCC/C=C\[C@@H]2C[C@@]2(C(=O)O)NC(=O)[C@@H]2C[C@@H](Oc3nccc4ccccc34)CN2C1=O [Compound 144]	pIC50	5.30 to 6.30
COc1ccc2c(OC3CC4C(=O)NC5(C(=O)O)CC5C=CCCCSCC(NC(=O)OC(C)(C)C)C(=O)N4C3)nccc2c1 (stereo not shown) [Compound 18A]	pIC50	6.30 to 7.30
COc1ccc2c(OC3CC4C(=O)NC5(C(=O)O)CC5C=CCOCCCC(NC(=O)OC(C)(C)C)C(=O)N4C3)nccc2c1 (stereo not shown) [Compound 27]	pIC50	6.30 to 7.30

Values compiled from patent US7173004B2.
